Items are presented alongside their recorded IC50.
- System: 786-0 complex spheroid viability
- assay-method-text: Anticancer human tumor 786-0 cell line growth inhibition;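 note: spheroids exposed to agents for seven days before readout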
- condition-label: curve of first compound; second compound 10 µM
Entry rule: numbers only, all in nM.

Below, each entry is followed by its recorded IC50 result.
Give IC50 for the following compound: O=C(C=Cc1cccc(S(=O)(=O)Nc2ccccc2)c1)NO + NC1CC1c1ccc(-c2cccc(O)c2)cc1
840

Give IC50 for the following compound: Nc1ccccc1NC(=O)c1ccc(CNC(=O)OCc2cccnc2)cc1 + NC1CC1c1ccc(-c2cccc(O)c2)cc1
1370

Give IC50 for the following compound: Nc1ccccc1NC(=O)c1ccc(CNC(=O)OCc2cccnc2)cc1 + NC1CCC(NC2CC2c2ccccc2)CC1
756

# input for lookup
Give IC50 for the following compound: CC1COCCN1c1cc(C2(S(C)(=N)=O)CC2)nc(-c2ccnc3[nH]ccc23)n1 (stereo unspecified) + NC1CC1c1ccc(-c2cccc(O)c2)cc1
751
